Target: human serotonin 5HT2A receptor (Homo sapiens)
Sequence (P28223 whole entry): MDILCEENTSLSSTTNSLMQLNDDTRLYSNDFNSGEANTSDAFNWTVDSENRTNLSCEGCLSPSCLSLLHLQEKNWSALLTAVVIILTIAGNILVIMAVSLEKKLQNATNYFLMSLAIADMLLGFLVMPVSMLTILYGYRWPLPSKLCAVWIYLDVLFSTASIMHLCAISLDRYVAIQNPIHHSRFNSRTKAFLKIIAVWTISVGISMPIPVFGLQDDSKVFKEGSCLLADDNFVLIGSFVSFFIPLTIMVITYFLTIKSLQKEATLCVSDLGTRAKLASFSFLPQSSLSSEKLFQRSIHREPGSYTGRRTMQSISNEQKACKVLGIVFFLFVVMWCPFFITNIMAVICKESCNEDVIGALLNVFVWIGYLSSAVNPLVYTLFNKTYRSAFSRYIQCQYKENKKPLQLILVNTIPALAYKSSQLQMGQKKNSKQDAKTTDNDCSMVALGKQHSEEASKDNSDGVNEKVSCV
Assay: 5HT2A receptor radioligand displacement assay
Design: key to the marks not given beside the values
Conditions: displacement of [3H]-ketanserin or [3H]-LSD, HEK293 membranes
Reported Property: Activity relative to psilocin

CN(C)CCc1c[nH]c2cccc(OC(=O)c3ccccc3F)c12 [drawing 63] | ++
CN(C)CCc1c[nH]c2cccc(OC(=O)c3cccc(C(=O)Oc4cccc5[nH]cc(CCN(C)C)c45)c3)c12 [drawing 61] | +++
CN(C)CCc1c[nH]c2cccc(OC(=O)c3ccc(Br)cc3)c12 [drawing 58] | ++
CN(C)CCc1c[nH]c2cccc(O)c12 [Psilocin, 4-hydroxy-N,N-dimethyltryptamine] | ++
CN(C)CCc1c[nH]c2cccc(OC(=O)CCCC(=O)Oc3cccc4[nH]cc(CCN(C)C)c34)c12 [drawing 60] | +++
CN(C)CCc1c[nH]c2cccc(OC(=O)C(C)(C)C(=O)Oc3cccc4[nH]cc(CCN(C)C)c34)c12 [drawing 59] | +++
CN(C)CCc1c[nH]c2cccc(OC(=O)CCC(=O)Oc3cccc4[nH]cc(CCN(C)C)c34)c12 [drawing 57] | +++

# evaluate next
*Q* Please report Activity relative to psilocin for the following molecule: CN(C)CCc1c[nH]c2cccc(OC(=O)[C@H]3C[C@@H]3C(=O)Oc3cccc4[nH]cc(CCN(C)C)c34)c12 [drawing 62]
*A* +++

* * *

Test: Single-dose oral pharmacokinetics in C57BL6 mice (plasma and brain)
Format: in vivo
Settings: male, C57BL6, mouse; parent compound in brain, 2 h post-dose, 3.0 mg/kg PO; read-out: Parent PK [brain] 2 h
Reported Property: concentration at 2 h (ng/mL)
Numbers only, in ng/mL.

Below, 2 molecules whose answers are already recorded.
CN(C)CCc1c[nH]c2cccc(OC(=O)CCCC(=O)Oc3cccc4[nH]cc(CCN(C)C)c34)c12 | 0
CN(C)CCc1c[nH]c2cccc(O)c12 [Psilocin, 4-hydroxy-N,N-dimethyltryptamine] | 54

# evaluate next
*Q* Please report concentration at 2 h for the following molecule: "CN(C)CCc1c[nH]c2cccc(OC(=O)C(C)(C)C(=O)Oc3cccc4[nH]cc(CCN(C)C)c34)c12"
*A* 0.5

* * *

Assay: Single-dose oral pharmacokinetics in C57BL6 mice (plasma and brain)
Assay type: in vivo
Settings: male, C57BL6, mouse; parent compound in plasma, 3.0 mg/kg PO; read-out: Parent PK AUC
Reported Property: AUC (ng·h/mL)
Answers are plain numbers, in ng·h/mL.

*Q* Please report AUC for the following compound: "CN(C)CCc1c[nH]c2cccc(OC(=O)C(C)(C)C(=O)Oc3cccc4[nH]cc(CCN(C)C)c34)c12"
*A* 39

* * *

Experiment: Single-dose oral pharmacokinetics in C57BL6 mice (plasma and brain)
Format: in vivo
Conditions: male, C57BL6, mouse, brain, oral, 3 mg/kg; 2-h post-dose, with estimated plasma concentration of 5 ng/mL; read-out: mean brain/plasma (B/P) ratio
Reported Property: Kp at 2 h

*Q* Please report Kp at 2 h for the following compound: CN(C)CCc1c[nH]c2cccc(O)c12 [Psilocin, 4-hydroxy-N,N-dimethyltryptamine]
*A* 11.2

* * *

Assay: Stability in fasted state simulated gastric fluid (FaSSGF)
Format: in vitro ADME
Conditions: 37° C., 60 min vs T0
Reported Property: % parent compound (%)
Numbers only, in %.

Below, 2 compounds whose answers are already recorded.
CN(C)CCc1c[nH]c2cccc(OC(=O)C(C)(C)C(=O)Oc3cccc4[nH]cc(CCN(C)C)c34)c12 [drawing 51] | 94.7
CN(C)CCc1c[nH]c2cccc(OC(=O)c3ccccc3F)c12 [drawing 55] | 97.5

Batch: % parent compound for all items listed.
1. CN(C)CCc1c[nH]c2cccc(OC(=O)c3cccc(C(=O)Oc4cccc5[nH]cc(CCN(C)C)c45)c3)c12 [drawing 53]
2. CN(C)CCc1c[nH]c2cccc(OC(=O)[C@H]3C[C@@H]3C(=O)Oc3cccc4[nH]cc(CCN(C)C)c34)c12 [drawing 54]
3. CN(C)CCc1c[nH]c2cccc(O)c12 [Psilocin, 4-hydroxy-N,N-dimethyltryptamine]
4. CN(C)CCc1c[nH]c2cccc(OC(=O)CCC(=O)Oc3cccc4[nH]cc(CCN(C)C)c34)c12 [drawing 49]
5. CN(C)CCc1c[nH]c2cccc(OC(=O)c3ccc(Br)cc3)c12 [drawing 50]
6. CN(C)CCc1c[nH]c2cccc(OC(=O)CCCC(=O)Oc3cccc4[nH]cc(CCN(C)C)c34)c12 [drawing 52]

*A*
1: 93.5; 2: 95.5; 3: 72.2; 4: 97.1; 5: 93.8; 6: 94.5
